Listed next: entries and their corresponding Kd.
Biological target: T1, recombinant purified human IL-12 p70 (human, UniProt P29459 23-219)
T1 construct: Disulfide-linked heterodimer of p35 and p40; also called hIL-12; Hu IL-12
T1 sequence 1: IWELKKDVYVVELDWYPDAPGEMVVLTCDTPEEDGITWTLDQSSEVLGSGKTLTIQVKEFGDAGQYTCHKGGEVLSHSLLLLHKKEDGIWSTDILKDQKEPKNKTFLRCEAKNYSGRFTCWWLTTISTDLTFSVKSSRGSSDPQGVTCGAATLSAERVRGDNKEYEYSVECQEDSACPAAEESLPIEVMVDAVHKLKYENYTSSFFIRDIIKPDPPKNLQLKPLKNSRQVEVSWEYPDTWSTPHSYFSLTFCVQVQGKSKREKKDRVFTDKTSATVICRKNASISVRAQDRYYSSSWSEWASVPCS
T1 sequence 2: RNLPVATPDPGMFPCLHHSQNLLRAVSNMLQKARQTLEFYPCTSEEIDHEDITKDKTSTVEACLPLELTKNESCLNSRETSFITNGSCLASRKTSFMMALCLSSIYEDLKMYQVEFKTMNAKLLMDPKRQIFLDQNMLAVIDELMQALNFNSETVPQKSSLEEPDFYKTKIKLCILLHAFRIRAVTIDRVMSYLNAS
Assay: SPR (Biacore) as in Example 1.1.B, human IL-12p70
# answer = value followed by unit

A selection of reference data follows.
CDR grafted anti IL-12p40 antibody 1A6.2 (antibody, human IgG1, kappa, L234A L235A, V domains shown, Full-length CDR-grafted antibody, COS cells) VH: EVTLKESGPVLVKPTETLTLTCTVSGFSLSTSGMGVSWIRQPPGKALEWLAHIWWDGDNYYNPSLKSRLTISKDTSKSQVVLTMTNMDPVDTATYYCARRTRVNYAMDYWGQGTTVTVSS VL: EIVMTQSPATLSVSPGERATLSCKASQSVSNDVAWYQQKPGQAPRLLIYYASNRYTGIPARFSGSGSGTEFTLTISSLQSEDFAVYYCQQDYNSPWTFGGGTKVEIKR    540 pM
CDR grafted anti IL-12p40 antibody 3G7.1 (antibody, human IgG1, kappa, L234A L235A, V domains shown, Full-length CDR-grafted antibody, COS cells) VH: EVQLVQSGAEVKKPGSSVKVSCKASGGTFSDYWIEWVRQAPGQGLEWMGGFSHGSGSTNYNEKFKGRVTITADKSTSTAYMELSSLRSEDTAVYYCARRRFRGMDYWGQGTTVTVSS VL: DIVMTQSPDSLAVSLGERATINCKASQSVSNDVAWYQQKPGQPPKLLIYYASNRYTGVPDRFSGSGSGTDFTLTISSLQAEDVAVYYCQQDYSSPWSFGGGTKVEIKR    220 pM
CDR grafted anti IL-12p40 antibody 3G7.2 (antibody, human IgG1, kappa, L234A L235A, V domains shown, Full-length CDR-grafted antibody, COS cells) VH: EVQLVQSGAEVKKPGASVKVSCKASGYTFTDYWIEWVRQAPGQGLEWMGGFSHGSGSTNYNEKFKGRVTMTTDTSTSTAYMELRSLRSDDTAVYYCARRRFRGMDYWGQGTTVTVSS VL: EIVMTQSPATLSVSPGERATLSCKASQSVSNDVAWYQQKPGQAPRLLIYYASNRYTGIPARFSGSGSGTEFTLTISSLQSEDFAVYYCQQDYSSPWSFGGGTKVEIKR    230 pM

Enquiry: Request the reported Kd associated with CDR grafted anti IL-12p40 antibody 1A6.5 (antibody, human IgG1, kappa, L234A L235A, V domains shown, Full-length CDR-grafted antibody, COS cells) VH: EVTLRESGPALVKPTQTLTLTCTFSGFSLSTSGMGVSWIRQPPGKALEWLAHIWWDGDNYYNPSLKSRLTISKDTSKNQVVLTMTNMDPVDTATYYCARRTRVNYAMDYWGQGTTVTVSS VL: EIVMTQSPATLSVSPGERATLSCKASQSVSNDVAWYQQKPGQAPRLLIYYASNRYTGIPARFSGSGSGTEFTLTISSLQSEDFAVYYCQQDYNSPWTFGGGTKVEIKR
Return: 430 pM
